This collection of values is drawn from patent US20250027068.

Enzyme Activity Endpoint Assay (purified): IgG for assorted proteins
Biological target: pooled human IgG (human IgG1,2,3 and 4)
Please give a number only; it is taken to be in ng/µL.

Exam item: Assign Enzyme Activity Endpoint Assay (purified): IgG to the following record: PRT-636 (protein) MQITSVWTKGVTPLTMDQFRNYNYDVIHAPYKPGQGWYDITKAFDGKDNLLCGAATAGNMLHWWFDQNKTEIEAYLSKHPEKQKIIFNNQELFDLKAAIDTKDSQTNSQLFNYFRDKAFPNLSARQLGVMPDLVLDMFINGYYLNVFKTQSTDVNRPYQDKDKRGGIFDAVFTRGDQTTLLTARHDLKNKGLNDISTIIKQELTEGKALALSHTYANVSISHVINLWGADFNAEGNLEAIYVTDSDANASIGMKKYFVGINAHGHVAISAKKIEGENIGAQVLGLFTLSSGKDIWQKLSLEHHHHHH
Marked response: 0

Proceeding to the next protein to report its Enzyme Activity Endpoint Assay (purified): IgG.
Exam item: Assign Enzyme Activity Endpoint Assay (purified): IgG to the following record: PRT-356 (protein) MSQTEDSESLQRLRDIEDFQAEKEKQNVVYTKWLDGVDVKDHDFRKIVDGNSAYYATPLLNGRGFYDINKDFNRDSDKCAAAVAANMFHYWLDRNRDNVDRFLRQNPEKHGIIELPDGQLKLSDFLNTYESDDGYRDKSKLFDFISNNFNGPVWTDKLLDNYINGYAYNYKYGRTIEDPTKNTSKINFFKEVFNEKILTNNHSIRNQNEFSVLLSEALYTGKAIGLSYGPAGLRHSLGHIISVWGADLDADGNVVAIYVTDSDDKKLTIGDERVGLKRYKISTDDEGRLRLTAYEETHNTGGQVRGLWTLDTGKQAWADYFDKTEQTGTDQAEQ
Marked response: 0
